- assay.info: in vitro
- assay.conditions: rat, gh3-tre-luc cells, AC50 (uM) modified / 1000
Counter-ions that a name gives are not always drawn.
observable: CC50 at 24 h

Returns the measured CC50 at 24 h for the input compound. Input: CCC(C)(NC(=O)c1cc(Cl)c(C)c(Cl)c1)C(=O)CCl (stereo not shown) [Zoxamide]
15 µM

Returns the measured CC50 at 24 h for the input compound. Input: CC(C)=CCCC(C)C=O (stereo not shown)
> 90 µM

Returns the measured CC50 at 24 h for the input compound. Input: "N#CC(C#N)=C(C#N)C#N"
> 100 µM

Returns the measured CC50 at 24 h for the input compound. Input: CO[C@H]1/C=C/O[C@@]2(C)Oc3c(C)c(O)c4c(O)c(cc(O)c4c3C2=O)NC(=O)/C(C)=C\C=C\[C@H](C)[C@H](O)[C@@H](C)[C@@H](O)[C@@H](C)[C@H](OC(C)=O)[C@@H]1C [Rifamycin SV sodium salt]
50.2 µM

Returns the measured CC50 at 24 h for the input compound. Input: "COc1ccc(N)c(C)c1"
> 90 µM

Returns the measured CC50 at 24 h for the input compound. Input: "O=C1CC[C@H](C(=O)N2CCCCC2)N1"
> 50 µM

Returns the measured CC50 at 24 h for the input compound. Input: C[N+]1(C)CCCCC1 [Mepiquat chloride]
> 90 µM

Returns the measured CC50 at 24 h for the input compound. Input: "O=C1Nc2ccc(Cl)cc2[C@@](C#CC2CC2)(C(F)(F)F)O1"
31.4 µM

Returns the measured CC50 at 24 h for the input compound. Input: CCCCOC(=O)[C@H](C)O [Butyl (2S)-2-hydroxypropanoate]
> 90 µM

Returns the measured CC50 at 24 h for the input compound. Input: "FC(F)(F)c1ccccc1-n1ccnc1"
> 50 µM

Returns the measured CC50 at 24 h for the input compound. Input: CC(=O)NNC(C)=O [Diacetyl hydrazine]
> 90 µM

Returns the measured CC50 at 24 h for the input compound. Input: COc1cc(OC)nc(Oc2cccc(Oc3nc(OC)cc(OC)n3)c2C(=O)O)n1 [Bispyribac-sodium]
> 90 µM

Returns the measured CC50 at 24 h for the input compound. Input: "CC(=O)c1nccs1"
> 90 µM

Returns the measured CC50 at 24 h for the input compound. Input: "Cc1cc(N=Nc2ccccc2C)ccc1N"
50.9 µM

Returns the measured CC50 at 24 h for the input compound. Input: CCN(C(=O)c1cc(C)cc(OC[C@H](C)Nc2ccncc2)c1)C(C)C [GW473178E methyl benzene sulphonic acid]
> 60 µM

Returns the measured CC50 at 24 h for the input compound. Input: "O=C(O)c1ccc(C(=O)O)c(C(=O)O)c1"
> 90 µM

Returns the measured CC50 at 24 h for the input compound. Input: "CCCCCCCCn1sc(Cl)c(Cl)c1=O"
12.7 µM

Returns the measured CC50 at 24 h for the input compound. Input: COC=O [Methyl formate]
> 8 µM

Returns the measured CC50 at 24 h for the input compound. Input: "CC(C)(C)NCCNC(C)(C)C"
> 90 µM

---

Provide the reported CC50 at 24 h of each item.
- assay.info: in vitro
- assay.conditions: rat, gh3-tre-luc cells, AC50 (uM) modified / 1000

Returns the measured CC50 at 24 h for the input compound. Input: "CCO[C@@H](Cc1ccc(OCCc2ccc(OS(C)(=O)=O)cc2)cc1)C(=O)O"
> 50 µM

Returns the measured CC50 at 24 h for the input compound. Input: "CCc1cc(SCc2sc(-c3ccc(C(F)(F)F)cc3)nc2CN2CCN(c3ccc(OC)cc3)CC2)ccc1OCC(=O)O"
22.4 µM

Returns the measured CC50 at 24 h for the input compound. Input: "CCCCCCCCCCCCCCCCBr"
> 30 µM

Returns the measured CC50 at 24 h for the input compound. Input: "COC(=O)[C@H]1[C@H]2C[C@H]3c4[nH]c5ccccc5c4CCN3C[C@H]2CC[C@@H]1O"
> 50 µM

Returns the measured CC50 at 24 h for the input compound. Input: NS(=O)(=O)c1ccc(Cl)c(S(N)(=O)=O)c1 [Clofenamide]
> 50 µM

Hey, just so you know, these numbers are from paper PMC6792352.
